target: Glutamate receptor ionotropic, AMPA (Rattus norvegicus, UniProt P19490+P19491+P19492+P19493)
# Ki values compiled below
Just the number please, in nM, no unit attached.

See these solved cases before continuing.
O=c1[nH]c2cc([N+](=O)[O-])c(-n3ccnc3)cc2n(C2CN3CCC2CC3)c1=O (stereo not drawn)
1000
O=c1[nH]c2cc([N+](=O)[O-])c(-n3ccnc3)cc2n(CCO)c1=O
420

Please turn your attention to the following entry.
-- ask What does the data say about its Ki? Entry: "O=c1[nH]c2cc([N+](=O)[O-])c(-n3ccnc3)cc2n(CC2CCCCC2)c1=O"
-- reply 790
